Assay: Pharmacokinetic profile of Lipid A in liver and plasma (LC/MS)
Type: in vivo, mouse
Details: CD-1, mouse, liver, intravenous, mice, after LNP administration

| compound | Tmax |
| --- | --- |
| CCCCC/C=C\C/C=C\CCCCCCCC(=O)OCC(COC(=O)CCC(OCCCCCCCC)OCCCCCCCC)COC(=O)OCCCN(CC)CC (stereo not shown) [Lipid A] | ≤ 30 min |
